tested.system: recombinant mouse sEH (MsEH) (Mus musculus)
Sequence (P34914 1-554): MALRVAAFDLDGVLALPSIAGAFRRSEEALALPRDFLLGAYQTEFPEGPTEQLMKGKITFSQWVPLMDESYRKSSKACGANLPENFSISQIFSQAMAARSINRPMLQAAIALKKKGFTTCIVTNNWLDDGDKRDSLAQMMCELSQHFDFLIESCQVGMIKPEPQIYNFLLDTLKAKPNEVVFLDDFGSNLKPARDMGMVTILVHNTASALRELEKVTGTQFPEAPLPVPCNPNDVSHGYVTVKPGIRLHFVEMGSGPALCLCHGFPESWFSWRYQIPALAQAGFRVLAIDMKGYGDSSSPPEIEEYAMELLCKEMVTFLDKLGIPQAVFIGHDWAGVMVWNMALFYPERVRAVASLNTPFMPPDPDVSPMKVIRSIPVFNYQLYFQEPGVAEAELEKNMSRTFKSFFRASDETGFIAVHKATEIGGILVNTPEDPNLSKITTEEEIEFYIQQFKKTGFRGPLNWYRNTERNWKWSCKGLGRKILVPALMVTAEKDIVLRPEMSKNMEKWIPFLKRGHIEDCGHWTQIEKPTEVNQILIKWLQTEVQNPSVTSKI
assay.method.text: Inhibition of recombinant mouse sEH (MsEH)
Assay type: biochemical
measurement.setup: Table 2; MsEH 0.13 μM; read-out: Mouse sEH IC50
test.readout: IC50 (nM)
The reply should be a number in nM, with the unit left off.

Completed entries (count: 3):
ON=C(c1ccccc1)C1OC1c1ccccc1 (racemic) = 3500
O=C(c1ccccc1)C1OC1c1ccc(-c2ccccc2)cc1 (racemic) = 140
O=C(c1ccccc1)C1OC1c1ccc(F)cc1 (racemic) = 1300

Continue with the next compound.
The reported IC50 value, recombinant mouse sEH (MsEH) (Mus musculus), for [O-][S+](c1ccccc1)C1OC1c1ccccc1 (racemic) reads 2300

###

tested.system: Human sEH (HsEH) (Homo sapiens, UniProt P34913)
assay.method.text: Inhibition of recombinant human sEH (HsEH)
Type: biochemical
measurement.setup: Table 1; HsEH 0.26 μM
Entries and their measured pIC50 follow.
Scale: pIC50 equals -log10([C]), with [C] in mol/L.

C(=NC1CCCCC1)=NC1CCCCC1 = 6.33

// "CCCCCCNC(=O)Nc1ccc(C(C)C)cc1" : pIC50 value = 7.00

// "CCCCCCCNC(=O)NC1CCCCC1" : pIC50 value = 7.00

###

Entries and their measured pIC50 follow.
tested.system: recombinant mouse sEH (MsEH) (Mus musculus)
Sequence (P34914 1-554): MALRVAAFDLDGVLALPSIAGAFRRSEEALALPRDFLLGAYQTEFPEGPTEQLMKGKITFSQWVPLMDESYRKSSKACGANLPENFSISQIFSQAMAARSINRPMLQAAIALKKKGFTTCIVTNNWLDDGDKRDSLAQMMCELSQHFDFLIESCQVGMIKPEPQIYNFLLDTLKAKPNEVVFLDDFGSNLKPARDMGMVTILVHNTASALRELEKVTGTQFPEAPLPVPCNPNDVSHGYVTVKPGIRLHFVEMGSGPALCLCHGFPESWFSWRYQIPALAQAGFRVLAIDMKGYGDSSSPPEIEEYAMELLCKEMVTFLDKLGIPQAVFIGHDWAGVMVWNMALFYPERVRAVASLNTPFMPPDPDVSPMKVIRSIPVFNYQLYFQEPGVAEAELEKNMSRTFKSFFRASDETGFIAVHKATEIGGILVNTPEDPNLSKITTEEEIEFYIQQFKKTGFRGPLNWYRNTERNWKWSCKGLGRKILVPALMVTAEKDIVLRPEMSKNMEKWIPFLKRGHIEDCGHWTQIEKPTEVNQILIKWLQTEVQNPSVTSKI
assay.method.text: Inhibition of recombinant mouse sEH (MsEH)
Assay type: biochemical
measurement.setup: Table 1; MsEH 0.13 μM; read-out: Mouse sEH IC50
Scale: pIC50 equals -log10([C]), with [C] in mol/L.

Completed entries (count: 5):
CCC(C)NC(=O)NC1CCCCC1 (stereo not shown) [compound 479] = 6.22
COc1ccc(NC(=O)NC2CCCCC2)cc1 [compound 67] = 6.15
O=C(Nc1ccc([N+](=O)[O-])cc1)NC1CCCCC1 [compound 38] = 6.77
O=C(NCC12CC3CC(CC(C3)C1)C2)NC12CC3CC(CC(C3)C1)C2 [compound 412] = 7.30
CCCNC(=O)Nc1cccc2ccccc12 [compound 253] = 7.00

// O=C(NCC1CCCCC1)Nc1cccc(Cl)c1 [compound 179] : pIC50 value = 7.22

###

tested.system: recombinant rat mEH (Rattus norvegicus)
Sequence (P07687 whole entry): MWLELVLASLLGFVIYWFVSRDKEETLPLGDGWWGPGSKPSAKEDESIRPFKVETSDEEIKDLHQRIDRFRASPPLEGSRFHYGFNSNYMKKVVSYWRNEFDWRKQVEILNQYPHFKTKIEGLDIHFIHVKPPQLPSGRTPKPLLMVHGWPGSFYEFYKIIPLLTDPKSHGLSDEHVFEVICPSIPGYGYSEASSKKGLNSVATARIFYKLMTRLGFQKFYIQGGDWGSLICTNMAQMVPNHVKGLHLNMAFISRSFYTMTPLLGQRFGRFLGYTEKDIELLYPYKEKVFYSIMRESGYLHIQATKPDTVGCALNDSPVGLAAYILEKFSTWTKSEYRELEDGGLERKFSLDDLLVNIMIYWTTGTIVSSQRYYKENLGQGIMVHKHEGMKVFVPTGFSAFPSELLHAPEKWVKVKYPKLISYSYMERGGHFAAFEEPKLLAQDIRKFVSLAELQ
assay.method.text: Inhibition of recombinant rat mEH
measurement.setup: read-out: K1 for recombinant rat mEH
test.readout: pKi
Scale: pKi equals -log10([C]), with [C] in mol/L.

// CCCCCCCC/C=C/CCCCCCCC(N)=O [elaidamide] : pKi value = 7.15

###

tested.system: Human sEH (HsEH) (Homo sapiens, UniProt P34913)
assay.method.text: Inhibition of recombinant human sEH (HsEH)
Format: biochemical
measurement.setup: Table 1; HsEH 0.26 μM
test.readout: IC50
# number then unit; no other words

Completed entries (count: 5):
O=C(CCCCc1ccccc1)NC1CCCCC1 = 0.68 µM
O=C(NC1CCCCC1)OC1CCCCC1 = 0.13 µM
O=C(NC1CCCCCCCCCCC1)NC1CCCCC1 = 0.1 µM
CCCCCCNC(=O)Nc1cccc(Cl)c1 = 0.25 µM
Cc1ccc(NC(=O)NC2CCCCC2)cc1 = 0.17 µM

// "CCCCCCCCCCCCCCNC(=O)NC1CCCCC1" : IC50 value = 0.24 µM

// "O=C(NCCC1CCCCC1)NC1CCCCC1" : IC50 value = 0.1 µM

// "CCCCCCCCCCOC(=O)NC" : IC50 value = 2.9 µM

// CC(C)(C)C1CCC(NC(=O)NC2CCCCC2)CC1 (centres unmarked) : IC50 value = 0.1 µM

// O=C(NC1CCCCC1)NC1CCCc2ccccc21 (centres unmarked) : IC50 value = 0.1 µM

// "CCCCCCCCNC(=O)NCCCCCC" : IC50 value = 0.24 µM

###

tested.system: recombinant mouse sEH (MsEH) (Mus musculus, UniProt P34914)
assay.method.text: Inhibition of recombinant mouse sEH (MsEH)
Type: biochemical
measurement.setup: Table 1; MsEH 0.13 μM; read-out: Mouse sEH IC50
test.readout: IC50 (nM)
The reply should be a number in nM, with the unit left off.

Completed entries (count: 5):
O=C(Nc1ccccc1)NC1CCCCC1 = 760
CCCCCCNC(=O)Nc1cccc(Cl)c1 = 310
O=C(NCCc1ccccc1)NC1CCCCC1 = 60
CCCCCCCCCCCCCC(=O)NC1CCCCC1 = 190
CC1CCC(C(C)C)C(OC(=O)NC2CCCCC2)C1 (stereo not shown) = 80

// "O=C(NCCc1cnc[nH]1)NC1CCCCC1" : IC50 value = 420

// "CCCCCCCCCCCCNC(=O)NC1CCC1" : IC50 value = 800

###

tested.system: Human sEH (HsEH) (Homo sapiens, UniProt P34913)
Sequence (P34913 1-555): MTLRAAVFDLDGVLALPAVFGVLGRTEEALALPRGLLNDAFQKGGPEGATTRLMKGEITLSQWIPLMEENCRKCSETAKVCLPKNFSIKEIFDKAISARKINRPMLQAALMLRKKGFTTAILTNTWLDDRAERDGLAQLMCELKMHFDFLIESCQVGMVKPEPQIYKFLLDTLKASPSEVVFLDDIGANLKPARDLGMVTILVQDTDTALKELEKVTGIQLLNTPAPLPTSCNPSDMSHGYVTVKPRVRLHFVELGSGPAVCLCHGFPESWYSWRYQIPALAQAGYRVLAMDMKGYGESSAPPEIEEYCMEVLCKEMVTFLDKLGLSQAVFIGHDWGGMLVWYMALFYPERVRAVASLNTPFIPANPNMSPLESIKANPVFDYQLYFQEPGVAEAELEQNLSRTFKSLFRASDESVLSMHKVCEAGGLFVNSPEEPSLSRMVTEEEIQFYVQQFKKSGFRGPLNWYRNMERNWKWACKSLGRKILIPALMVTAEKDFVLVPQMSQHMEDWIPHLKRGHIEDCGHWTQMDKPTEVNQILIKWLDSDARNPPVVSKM
assay.method.text: Inhibition of recombinant human sEH (HsEH)
Type: biochemical
measurement.setup: Table 1; HsEH 0.26 μM
test.readout: pIC50
Scale: pIC50 equals -log10([C]), with [C] in mol/L.

Completed entries (count: 5):
CC(=O)c1ccc(NC(=O)NC2CCCCC2)cc1 [compound 126] = 6.57
CCCCCCc1ccc(NC(=O)NC2CCCCC2)cc1 [compound 501] = 6.80
O=C(NCC1CCCCC1)Nc1ccc2ccccc2c1 [compound 169] = 6.89
CCCCCNC(=O)NC1CCCCC1 [compound 509] = 6.04
CC(C)CNC(=O)NC1CCCCC1 [compound 103] = 5.66

// CCCCCCNC(=O)Nc1ccc2ccccc2c1 [compound 143] : pIC50 value = 6.24

// O=C(NC1CCCCC1)OCc1cccc2ccccc12 [compound 262] : pIC50 value = 7.00

// O=C(NCc1ccccc1)NC1CCCCC1 [compound 270] : pIC50 value = 5.72

// CC1CCC(C(C)C)C(OC(=O)NC2CCCCC2)C1 (stereo not drawn) [compound 261] : pIC50 value = 6.92
